Each entry below carries its recorded IC50.
Assay: Inhibition of Bacillus stearothermophilus alpha-glucosidase
Design: species or system Geobacillus stearothermophilus
Counter-ions that a name gives are not always drawn.
Please respond with the number in µM and leave the unit unwritten.

The following compounds have reported results that may help.
>  <Compound>
CCCCCC1(CCCCC)OC(=O)[C@@]2(C[C@@H](O)[C@@H](O)[C@H](OC(=O)/C=C/c3ccc(O)c(O)c3)C2)O1

>  <Metric>
IC50

>  <Value Measured>
14.2

$$$$
>  <Compound>
OC[C@H]1NC[C@H](O)[C@@H](O)[C@@H]1O [DUVOGLUSTAT HYDROCHLORIDE]

>  <Metric>
IC50

>  <Value Measured>
2.4

$$$$

# ---- query compound ----
Task item: GET /values?readout=IC50&item= CCCC1(CCC)O[C@H]2[C@H](OC(=O)/C=C/c3ccc(O)c(O)c3)C[C@]3(C[C@H]2O1)OC(CCC)(CCC)OC3=O
Reply: 5.5

----------
Experiment: Inhibition of Bacillus stearothermophilus alpha-glucosidase
Set-up: species or system Geobacillus stearothermophilus
Metric: IC50 (µM)
Express your answer in µM, writing the number without its unit.

>  <Molecule>
CC1(C)OC(=O)[C@@]2(C[C@@H](O)[C@@H](O)[C@H](OC(=O)/C=C/c3ccc(O)c(O)c3)C2)O1

>  <Quantity Unit>
µM

>  <IC50>
2540

$$$$
>  <Molecule>
CCCCCCCC[C@@H]1OC(=O)[C@@]2(C[C@@H](O)[C@@H](O)[C@H](OC(=O)/C=C/c3ccc(O)c(O)c3)C2)O1

>  <Quantity Unit>
µM

>  <IC50>
10.9

$$$$
>  <Molecule>
CCCCCCCCC1(CCCCCCCC)O[C@H]2[C@H](OC(=O)/C=C/c3ccc(O)c(O)c3)C[C@]3(C[C@H]2O1)OC(CCCCCCCC)(CCCCCCCC)OC3=O

>  <Quantity Unit>
µM

>  <IC50>
0.9

$$$$
>  <Molecule>
O=C(/C=C/c1ccc(O)c(O)c1)O[C@@H]1C[C@](O)(C(=O)O)C[C@@H](O)[C@H]1O [CHLOROGENIC ACID]

>  <Quantity Unit>
µM

>  <IC50>
2820

$$$$
>  <Molecule>
CC1(C)OC2Cc3c(O)cc(O)cc3O[C@@H]2c2cc(O)c(O)cc21 (some centres undefined)

>  <Quantity Unit>
µM

>  <IC50>
29.6

$$$$
>  <Molecule>
CCC1(CC)OC(=O)[C@@]2(C[C@@H](O)[C@@H](O)[C@H](OC(=O)/C=C/c3ccc(O)c(O)c3)C2)O1

>  <Quantity Unit>
µM

>  <IC50>
128

$$$$

Task item: Name the reported IC50 value associated with the molecule CCCCCCC1(CCCCCC)O[C@H]2[C@H](OC(=O)/C=C/c3ccc(O)c(O)c3)C[C@]3(C[C@H]2O1)OC(CCCCCC)(CCCCCC)OC3=O
Reply: 0.8

Task item: Same question for CCCCCCCC[C@@H]1OC(=O)[C@]2(C[C@@H](OC(=O)/C=C/c3ccc(O)c(O)c3)[C@@H]3O[C@H](CCCCCCCC)O[C@@H]3C2)O1 please.
Reply: 2

Task item: Check CCCCC1(CCCC)OC(=O)[C@@]2(C[C@@H](O)[C@@H](O)[C@H](OC(=O)/C=C/c3ccc(O)c(O)c3)C2)O1 too.
Reply: 14.4

Task item: Okay, and CCCCCCCC[C@H]1O[C@H]2[C@H](OC(=O)/C=C/c3ccc(O)c(O)c3)C[C@]3(C[C@H]2O1)O[C@@H](CCCCCCCC)OC3=O ?
Reply: 0.8

----------
Below, each entry is listed alongside its reported IC50.
Assay: Inhibition of Bacillus stearothermophilus alpha-glucosidase
Parameters: species or system Geobacillus stearothermophilus
Reply with the number and its unit after it.

Observe how each entry below is paired with its result.
>  <Compound>
CCCCCCCC[C@@H]1O[C@H]2[C@H](OC(=O)/C=C/c3ccc(O)c(O)c3)C[C@]3(C[C@H]2O1)O[C@H](CCCCCCCC)OC3=O

>  <IC50>
1800 nM

$$$$
>  <Compound>
C[C@H]1O[C@H](O[C@H]2[C@H](O)[C@@H](O)[C@@H](O[C@H]3[C@H](O)[C@@H](O)C(O)O[C@@H]3CO)O[C@@H]2CO)[C@H](O)[C@@H](O)[C@@H]1N[C@H]1C=C(CO)[C@@H](O)[C@H](O)[C@H]1O (stereo not given in full)

>  <IC50>
100 nM

$$$$
>  <Compound>
CCCCCCCC1(CCCCCCC)OC(=O)[C@@]2(C[C@@H](O)[C@@H](O)[C@H](OC(=O)/C=C/c3ccc(O)c(O)c3)C2)O1

>  <IC50>
3600 nM

$$$$
>  <Compound>
CC1(C)O[C@H]2[C@H](OC(=O)/C=C/c3ccc(O)c(O)c3)C[C@]3(C[C@H]2O1)OC(C)(C)OC3=O

>  <IC50>
154000 nM

$$$$

Consider the record given below.
Task item: Name the reported IC50 value associated with the compound CCCCCCCC1(CCCCCCC)O[C@H]2[C@H](OC(=O)/C=C/c3ccc(O)c(O)c3)C[C@]3(C[C@H]2O1)OC(CCCCCCC)(CCCCCCC)OC3=O
Reply: 900 nM

----------
Assay: Inhibition of Saccharomyces cerevisiae alpha-glucosidase
pIC50: −log10 of the molar value.
# class assignment by measured pIC50: bin 0 = under 5, bin 1 = from 5 up to 6, bin 2 = 6 and over

Task item: Sort into band: CCCCCCCC[C@@H]1OC(=O)[C@@]2(C[C@@H](O)[C@@H](O)[C@H](OC(=O)/C=C/c3ccc(O)c(O)c3)C2)O1
Reply: bin 1

Task item: Check CCCCCCCC1(CCCCCCC)OC(=O)[C@@]2(C[C@@H](O)[C@@H](O)[C@H](OC(=O)/C=C/c3ccc(O)c(O)c3)C2)O1 too.
Reply: bin 1

Task item: Try the molecule CC1(C)O[C@H]2[C@H](OC(=O)/C=C/c3ccc(O)c(O)c3)C[C@]3(C[C@H]2O1)OC(C)(C)OC3=O
Reply: bin 0

Task item: Try this molecule too: CCCCCCCC[C@H]1OC(=O)[C@@]2(C[C@@H](O)[C@@H](O)[C@H](OC(=O)/C=C/c3ccc(O)c(O)c3)C2)O1
Reply: bin 1

Task item: What would you report for CCCCCCCC[C@@H]1O[C@H]2[C@H](OC(=O)/C=C/c3ccc(O)c(O)c3)C[C@]3(C[C@H]2O1)O[C@@H](CCCCCCCC)OC3=O ?
Reply: bin 2

----------
Experiment: Inhibition of Saccharomyces cerevisiae alpha-glucosidase
pIC50: −log10 of the molar value. Where a name gives a salt, the structure may show the parent alone.
# label = true if pIC50 >= 5 else false

Consider the following illustrative entries.
>  <Molecule>
OC[C@H]1NC[C@H](O)[C@@H](O)[C@@H]1O [DUVOGLUSTAT HYDROCHLORIDE]

>  <Group>
true

$$$$
>  <Molecule>
CCCCCCCC1(CCCCCCC)O[C@H]2[C@H](OC(=O)/C=C/c3ccc(O)c(O)c3)C[C@]3(C[C@H]2O1)OC(CCCCCCC)(CCCCCCC)OC3=O

>  <Group>
true

$$$$
>  <Molecule>
CCCCC1(CCCC)OC(=O)[C@@]2(C[C@@H](O)[C@@H](O)[C@H](OC(=O)/C=C/c3ccc(O)c(O)c3)C2)O1

>  <Group>
true

$$$$
>  <Molecule>
CCCCCCCC[C@@H]1O[C@H]2[C@H](OC(=O)/C=C/c3ccc(O)c(O)c3)C[C@]3(C[C@H]2O1)O[C@H](CCCCCCCC)OC3=O

>  <Group>
true

$$$$

Task item: Entry O=C(/C=C/c1ccc(O)c(O)c1)O[C@@H]1C[C@](O)(C(=O)O)C[C@@H](O)[C@H]1O : is its pIC50 no less than 5?
Reply: false

Task item: Entry CCC1(CC)O[C@H]2[C@H](OC(=O)/C=C/c3ccc(O)c(O)c3)C[C@]3(C[C@H]2O1)OC(CC)(CC)OC3=O please
Reply: false

----------
Experiment: Inhibition of Bacillus stearothermophilus alpha-glucosidase
Parameters: species or system Geobacillus stearothermophilus
Listed here are molecules together with their documented IC50.
Please give the number followed by its unit.

Some molecules with recorded IC50:
>  <Cpd Smiles>
CCCCCCC1(CCCCCC)OC(=O)[C@@]2(C[C@@H](O)[C@@H](O)[C@H](OC(=O)/C=C/c3ccc(O)c(O)c3)C2)O1

>  <Value Measured>
3.9 µM

$$$$
>  <Cpd Smiles>
CCCCCCCC[C@@H]1O[C@H]2[C@H](OC(=O)/C=C/c3ccc(O)c(O)c3)C[C@]3(C[C@H]2O1)O[C@@H](CCCCCCCC)OC3=O

>  <Value Measured>
0.7 µM

$$$$
>  <Cpd Smiles>
CCCC1(CCC)OC(=O)[C@@]2(C[C@@H](O)[C@@H](O)[C@H](OC(=O)/C=C/c3ccc(O)c(O)c3)C2)O1

>  <Value Measured>
62.2 µM

$$$$

Attention now turns to another entry.
Task item: // returns reported IC50 for input CCC1(CC)O[C@H]2[C@H](OC(=O)/C=C/c3ccc(O)c(O)c3)C[C@]3(C[C@H]2O1)OC(CC)(CC)OC3=O
Reply: 44.9 µM
